system: A498 renal; experiment: NCI-60 one-dose screen, 48 h; settings: 10 µM unless noted
The panel holds about 83,000 compounds, 20% with a hit somewhere; the sample as a whole holds those more often. The source made the active and inactive calls. How the source made its calls: active means growth percent below 10; inactive means the rest.
Classes used: active, inactive

[[record]]
compound = "COc1cccc(NC(=O)Nc2ccc(Oc3ncnc4[nH]c(C)c(C)c34)cc2)c1"
class_assignment = "inactive"

[[record]]
compound = "CCCCn1c(=O)c(/C=C/C(=O)/C=C/c2ccc(O)c(OC)c2)cc2ccc(Cl)cc21"
class_assignment = "inactive"

[[record]]
compound = "CC[C@]12C=CCN3CC[C@@]4(c5ccc(OC)cc5N(C)[C@H]4[C@@](O)(C(=O)OC)[C@@H]1OC(=O)CCC(=O)O[C@H]1CC[C@H]4[C@@H]5CC[C@H]6CC(=O)CC[C@]6(C)[C@H]5CC[C@]14C)[C@@H]32"
class_assignment = "inactive"

[[record]]
compound = "CCCCc1n(Cc2ccc3ccccc3c2)c2ccccc2[n+]1Cc1ccc2ccccc2c1"
class_assignment = "active"

[[record]]
compound = "CC(C)NS(=O)(=O)c1cccc(-c2ccc3c(=O)n(CCCN)c4c(c3c2)C(=O)c2ccccc2-4)c1"
class_assignment = "inactive"

[[record]]
compound = "COc1cc(/C=C/CO)cc(OC)c1O[C@@H]1O[C@H](CO)[C@@H](O)[C@H](O)[C@H]1O"
class_assignment = "inactive"

[[record]]
compound = "CCCn1c(N)c(C(N)=O)sc1=S"
class_assignment = "inactive"

[[record]]
compound = "Cc1c(Cl)cccc1NC(=O)c1sc2nc3c(cc2c1N)CN(Cc1ccccc1)CC3"
class_assignment = "inactive"

[[record]]
compound = "Cc1cccc(C)c1NC(=O)CN(CC(C)C)CC(O)COc1ccccc1 (stereo not drawn)"
class_assignment = "inactive"

[[record]]
compound = "COc1cc(C2=NN(C=O)C(c3cccc(Nc4ccnc5cc(C(F)(F)F)ccc45)c3)C2)cc(OC)c1OC (stereo not drawn)"
class_assignment = "inactive"

[[record]]
compound = "C=C1C(=O)O[C@H]2[C@H]1CC/C(COC(=O)/C=C/c1cccnc1)=C\\CC[C@@]1(C)O[C@@H]21"
class_assignment = "inactive"

[[record]]
compound = "Cc1nc2sc(C(=O)Nc3ccccc3Cl)c(N)c2cc1C(C)O (stereo not drawn)"
class_assignment = "inactive"

[[record]]
compound = "Nc1c(C(=O)Nc2ccccn2)sc2nc3c(cc12)CCCCCC3"
class_assignment = "inactive"

[[record]]
compound = "COc1ccc([C@H]2[C@@H](F)C(=O)N2c2cc(OC)c(OC)c(OC)c2)cc1F"
class_assignment = "active"

[[record]]
compound = "COc1ccccc1N1CCN(CCCOc2ccc(C(=O)/C=C3/C(=O)Nc4ccccc43)cc2)CC1"
class_assignment = "inactive"

[[record]]
compound = "[2H]c1cc2c(c([2H])c1F)/C(=C/c1[nH]c(C)c(C(=O)NCCN(CC)CC)c1C)C(=O)N2"
class_assignment = "inactive"

[[record]]
compound = "Nc1ccc(C2=NN(C(=O)c3cc(-c4ccc(Cl)cc4)nc4ccccc34)C(c3ccc(Cl)cc3)C2)cc1 (stereo not drawn)"
class_assignment = "inactive"

[[record]]
compound = "O=C1C(=O)c2c(nc3ccc(Br)cn23)-c2ccccc21"
class_assignment = "inactive"


---

tested on: MOLT-4 leukemia; assay: NCI-60 one-dose screen, 48 h (100 = growth as untreated, 0 = no growth, -100 = all killed); settings: 10 µM unless noted
The panel holds about 83,000 compounds, 20% with a hit somewhere; the sample as a whole holds those more often.
# growth binned as c1 = under 70%, c2 = from 70% up to 90%, c3 = 90% and over

[[record]]
molecule = "NCCN1CCNCC1"
target_desc = "MOLT-4 leukemia"
class_assignment = "c3"

[[record]]
molecule = "Cc1ccccc1NC(=O)c1sc2nc(C)c(C(C)O)cc2c1N (stereo unspecified)"
target_desc = "MOLT-4 leukemia"
class_assignment = "c1"

[[record]]
molecule = "COc1ccc(C(=O)c2cc(OC)c(C)c(OC)c2)cc1OC(=O)CCl"
target_desc = "MOLT-4 leukemia"
class_assignment = "c1"

[[record]]
molecule = "Cc1ccc(C2=N[C@H]3CCC[C@@H]3N(c3ccccc3)C(C(Cl)Cl)=N2)cc1"
target_desc = "MOLT-4 leukemia"
class_assignment = "c3"

[[record]]
molecule = "N#Cc1c(-c2ccc(Cl)cc2)cc(-c2cc3ccccc3o2)nc1SCC(=O)c1ccc(Cl)cc1"
target_desc = "MOLT-4 leukemia"
class_assignment = "c3"

[[record]]
molecule = "CCOC(=O)NC(Cc1ccccc1)c1ccccc1 (stereo unspecified)"
target_desc = "MOLT-4 leukemia"
class_assignment = "c2"

